TARGET OR SYSTEM: T1, ProQ (minimal ProQ, FinO domain with short N- and C-terminal extensions) (Neisseria meningitidis, UniProt Q9JY98 1-141)
T1 sequence: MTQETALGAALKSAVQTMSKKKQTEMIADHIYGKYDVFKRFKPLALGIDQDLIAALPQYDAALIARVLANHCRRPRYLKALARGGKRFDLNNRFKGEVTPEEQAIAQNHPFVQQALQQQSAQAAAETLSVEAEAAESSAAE
TEST NAME: EMSA; max bound 85%; 25 mM Tris pH 7.5, 150 mM NaCl, 5% glycerol, 1 mM MgCl2, 1 nM 32P-RNA, ProQ up to 50 nM, 30 min at room temperature; 6% native gel at 4 C
DETAILS: protein: recombinant; tags: N-terminal His6-TEV, cleaved; one extra N-terminal Ser remains; label: 5'-32P; terminator hairpin, 5-U tail
QUANTITY: pKd
Remember, pKd is on a log scale: it is -log10 of the molar concentration.

Q: Check the records and state pKd for GGGAUUUCAGUUUGAAAGCAAAGCCUCCGACUGUUCGGAGGCUUUUU (structured_RNA) [rpmG-U5]
Ans: 9.33
